- method description: activity coefficient (dimensionless); of the first substance listed, at infinite dilution; xn = mol fraction of the nth substance listed
- recorded conditions: 333 K; 101.33 kPa; Liquid; Chromatography; x1 = 0

- molecule: "C1COCCO1 [1,4-dioxane] + C[n+]1ccn(CCO)c1.O=S(=O)([O-])C(F)(F)C(F)(F)C(F)(F)C(F)(F)F"
  activity coefficient: 1.59
- molecule: "CCCCCCCC [octane] + C[n+]1ccn(CCO)c1.O=S(=O)([O-])C(F)(F)C(F)(F)C(F)(F)C(F)(F)F"
  activity coefficient: 47.3
- molecule: "CC1CCCCC1 [methylcyclohexane] + C[n+]1ccn(CCO)c1.O=S(=O)([O-])C(F)(F)C(F)(F)C(F)(F)C(F)(F)F"
  activity coefficient: 19
- molecule: "CCCCCCCCC [nonane] + C[n+]1ccn(CCO)c1.O=S(=O)([O-])C(F)(F)C(F)(F)C(F)(F)C(F)(F)F"
  activity coefficient: 88
- molecule: "CCO [ethanol] + C[n+]1ccn(CCO)c1.O=S(=O)([O-])C(F)(F)C(F)(F)C(F)(F)C(F)(F)F"
  activity coefficient: 1.31
